# Test system: gum arabic
# Method: VHH binding to gum arabic in ELISA
# Design: species or system acacia tree
# Condition parameters: [VHH] 0.04688 μg/ml (3.125 nM); gum arabic 100 μg/ml
Attribute measured: absorbance at 405 nm
Keep the answer to the number alone.

Request: Dear colleague, I am looking for the recorded absorbance at 405 nm of the following molecule: VHH7A2: plant-binding VHH, listed among SEQ ID NO:1-42 (protein, listed as Lama glama, 7A2) VHH: QVQLQESGGGSVHPGGSLTLSCLASGFSLSNYGMGWFRQAPGKEREAVSCTSVPNGHIYYAESVKGRFTIVRDNAGNSVYLQMNSLKPEDAANYFCATTDCEAAHWGTWVNYYGQGTQVTVSS
Response: 0.101

Request: Dear colleague, I am looking for the recorded absorbance at 405 nm of the following molecule: VHH 7D2 (VHH, Hexahistidine-tagged) VHH: QVQLQESGGGLVQPGRSLKVACAAAGFSLRYYGIGWFRQAPGKEREAVSCTSANDGSTYYRDSVRGRFTISRDDGKNTVYLQMNRLKPEDTAVYYCATTDCDATSWGTWINYYGQGTQVTVSS
Response: 0.136

Request: Dear colleague, I am looking for the recorded absorbance at 405 nm of the following molecule: VHH5E5: plant-binding VHH, listed among SEQ ID NO:1-42 (protein, listed as Lama glama, 5E5) VHH: QVQLQESGGGLVQPGGSLTLSCTASGFAMRRFGIGWFRQVVGKEREGVSCSNVHDGSTYYANYVKGRFTIVRDDTKNMLYLHMNSLRAEDTGVYSCATTDCEATAWGTYRGYFGQGTQVTVSS
Response: 0.088

Request: Dear colleague, I am looking for the recorded absorbance at 405 nm of the following molecule: VHH 5G5 (VHH, Hexahistidine-tagged) VHH: QVQLQESGGGLVQPGGSLRLSCAASGFSLRYFGIGWFRQAAGKEREGISCSNVRDGNTYYADSVKGRFTISRDNVRNMLYLQMNNLKPDDTAVYSCATTDCEATTWGTYRGYFGQGTQVTVSS
Response: 0.317
